Target: HIV-1 protease (Human immunodeficiency virus type 1 group M subtype B, UniProt P04585)
Construct: The HIV-1 protease is composed of 99 amino acids
Test: In vitro HIV-1 protease assay
Type: biochemical
Details: purified HIV-1 protease 15 picomolar; peptide substrate 440 micromolar; pH 5.5; 30° C., 60 minutes; HPLC fluorescence detection
Procedure: Compounds were evaluated for the ability to inhibit the enzymatic activity of HIV-1 protease in an in vitro assay. Protease activity was assessed in reactions catalyzed by purified HIV-1 protease at a concentration of 15 picomolar in buffer (50 mM sodium acetate, pH 5.5, 100 mM NaCl, 1 mg/mL bovine serum albumin) using a peptide substrate with sequence Val-Ser-Gln-Asn-(beta-naphthylalanine)-Pro-IIe-Val at a concentration of 440 micromolar in a final volume of 80 microliters. […]
IC50 less than 600 nM is satisfied; IC50 greater than or equal to 600 nM is not satisfied.

Look over these answered cases.
>>> assigned_class("C[C@H]1Cc2cc(F)ccc2S(=O)(=O)N(C[C@@H](O)[C@H](Cc2ccccc2)NC(=O)OC(C)(C)C)C1 [Compound 13]")
"satisfied"
>>> assigned_class("C[C@H]1Cc2ccccc2S(=O)(=O)N(C[C@@H](O)[C@H](Cc2ccccc2)NC(=O)Oc2ccccc2)C1 [Compound 17]")
"not satisfied"
>>> assigned_class("C[C@H]1Cc2ccccc2S(=O)(=O)N(C[C@@H](O)[C@H](Cc2ccccc2)NC(=O)OC(C)(C)C)C1 [Compound 15]")
"satisfied"
>>> assigned_class("C=CCOC(=O)N[C@@H](Cc1ccccc1)[C@H](O)CN1C[C@@H](C)Cc2ccccc2S1(=O)=O [Compound 4]")
"satisfied"
>>> assigned_class("C=CCOC(=O)N[C@@H](Cc1ccccc1)[C@H](O)CN1C[C@@H](c2ccccc2)Cc2ccccc2S1(=O)=O [Compound 9]")
"satisfied"
>>> assigned_class("CCOC(=O)N[C@@H](Cc1ccccc1)[C@H](O)CN1C[C@H](c2ccccc2)Cc2ccccc2S1(=O)=O [Compound 10]")
"not satisfied"
>>> assigned_class("C=CCOC(=O)N[C@@H](Cc1ccccc1)[C@H](O)CN1C[C@H](c2ccccc2)Cc2ccccc2S1(=O)=O [Compound 8]")
"not satisfied"
>>> assigned_class("CC(C)(C)OC(=O)N[C@@H](Cc1ccccc1)[C@H](O)CN1CC(c2ccccc2)Cc2ccccc2S1(=O)=O (mixture of isomers) [Compound 7]")
"satisfied"

Enquiry: Report whether reported IC50 is lower than 600 nM (strictly) for COc1ccc2c(c1)C[C@@H](C)CN(C[C@@H](O)[C@H](Cc1ccccc1)NC(=O)OC(C)(C)C)S2(=O)=O [Compound 22]
Return: not satisfied

Enquiry: // next record CCOC(=O)N[C@@H](Cc1ccccc1)[C@H](O)CN1C[C@H](C)Cc2ccccc2S1(=O)=O [Compound 5]
Return: not satisfied

Enquiry: // next record C[C@@H]1Cc2ccccc2S(=O)(=O)N(C[C@@H](O)[C@H](Cc2ccccc2)NC(=O)OC(C)(C)C)C1 [Compound 14]
Return: not satisfied

Enquiry: // next record C[C@H]1Cc2cc(F)ccc2S(=O)(=O)N(C[C@@H](O)[C@H](Cc2ccccc2)NC(=O)C2CN(c3ccccc3)C(=O)O2)C1 (some centres unmarked) [Compound 24]
Return: satisfied

Enquiry: // next record C=CCOC(=O)N[C@@H](Cc1ccccc1)[C@H](O)CN1C[C@H](C)Cc2ccccc2S1(=O)=O [Compound 3]
Return: not satisfied

Enquiry: // next record CCOC(=O)N[C@@H](Cc1ccccc1)[C@H](O)CN1C[C@@H](c2ccccc2)Cc2ccccc2S1(=O)=O [Compound 11]
Return: not satisfied

Enquiry: // next record C[C@H]1Cc2cc(C(F)(F)F)ccc2S(=O)(=O)N(C[C@@H](O)[C@H](Cc2ccccc2)NC(=O)OC(C)(C)C)C1 [Compound 19]
Return: not satisfied

Enquiry: // next record CCOC(=O)N[C@@H](Cc1ccccc1)[C@H](O)CN1C[C@@H](C)Cc2ccccc2S1(=O)=O [Compound 6]
Return: satisfied

Enquiry: // next record C[C@@H]1Cc2ccc(C(F)(F)F)cc2S(=O)(=O)N(C[C@@H](O)[C@H](Cc2ccccc2)NC(=O)OC(C)(C)C)C1 [Compound 20]
Return: not satisfied

Enquiry: // next record COc1ccc2c(c1)C[C@H](C)CN(C[C@@H](O)[C@H](Cc1ccccc1)NC(=O)OC(C)(C)C)S2(=O)=O [Compound 23]
Return: satisfied

Enquiry: // next record C[C@@H]1Cc2cc(F)ccc2S(=O)(=O)N(C[C@@H](O)[C@H](Cc2ccccc2)NC(=O)OC(C)(C)C)C1 [Compound 12]
Return: not satisfied

Source of measurements: patent US8283346B2
